Where do the numbers come from? From the RNAGym collection of RNA variant scans (doi:10.7554/elife.80360).

Recorded self-cleavage, one value per entry.
B1: CPEB3 Ribozyme (parent)
chain: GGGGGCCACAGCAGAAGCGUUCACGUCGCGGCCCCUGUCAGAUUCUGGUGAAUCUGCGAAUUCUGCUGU

# Variants of: B1
# Protocol notes: self-cleavage, relative activity (ratio to wild type); higher = more cleavage; co-transcriptional
Output: the number by itself.

Some entries whose results are on file:
Sequence variant: G17C U21G
self-cleavage: 0.229
--
Sequence variant: C18U U53C
self-cleavage: 0.47
--
Sequence variant: G1C C34U
self-cleavage: 0.236
--
Sequence variant: G48C G65C
self-cleavage: 0.775
--
Sequence variant: U38A U43C
self-cleavage: 0.9

Form field: reported self-cleavage of G4C G37C 0.068

Form field: reported self-cleavage of A23U C29U 0.437

Form field: reported self-cleavage of G50U G65A 0.953

Form field: reported self-cleavage of G3A U20A 0.0708

Form field: reported self-cleavage of G11U U62G 0.381

Form field: reported self-cleavage of C39G C66U 0.961

Form field: reported self-cleavage of C12U C63G 0.443

Form field: reported self-cleavage of U43A 0.953

Form field: reported self-cleavage of C22G C39G 0.0932

Form field: reported self-cleavage of U38C C54G 0.643

Form field: reported self-cleavage of G2C U46C 0.0336

Form field: reported self-cleavage of G30U G47U 0.417

Form field: reported self-cleavage of G3C A15C 0.0371

Form field: reported self-cleavage of G2U A8U 0.0613

Form field: reported self-cleavage of G31A 0.931

Form field: reported self-cleavage of G4A C6A 0.0589

Form field: reported self-cleavage of G56U U62C 0.67
